Biological target: PAI-1 (Homo sapiens)
Sequence (P05121 24-402): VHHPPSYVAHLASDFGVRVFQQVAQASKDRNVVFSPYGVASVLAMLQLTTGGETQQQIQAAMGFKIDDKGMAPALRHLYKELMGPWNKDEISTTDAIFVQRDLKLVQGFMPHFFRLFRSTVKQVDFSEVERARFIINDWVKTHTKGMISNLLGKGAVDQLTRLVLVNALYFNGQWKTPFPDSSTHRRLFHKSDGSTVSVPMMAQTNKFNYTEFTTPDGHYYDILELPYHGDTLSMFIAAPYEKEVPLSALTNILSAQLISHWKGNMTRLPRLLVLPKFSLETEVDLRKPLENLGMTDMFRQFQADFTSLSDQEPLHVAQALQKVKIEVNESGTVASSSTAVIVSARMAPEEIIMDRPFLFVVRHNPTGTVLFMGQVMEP
Experiment: biochemical
Conditions: 12.5 μM
quantity.measured: Degree of inhibition in PAI chromogenic substrate assay

[[record]]
compound = "CN(C)CCOc1ccc(/C=c2\\[nH]c(=O)/c(=C/c3ccccc3)[nH]c2=O)c(Cl)c1 [Compound 1951]"
tested_system = "PAI-1 (Homo sapiens)"
reported_value = "1%"

[[record]]
compound = "CN(C)CCOc1ccc(/C=c2\\[nH]c(=O)/c(=C/c3ccccc3)[nH]c2=O)cc1 [Compound 1956]"
tested_system = "PAI-1 (Homo sapiens)"
reported_value = "65%"

[[record]]
compound = "CN(C)CCOc1ccc(/C=c2\\[nH]c(=O)/c(=C/c3ccccc3)[nH]c2=O)cc1 [Compound 1954]"
tested_system = "PAI-1 (Homo sapiens)"
reported_value = "57%"

[[record]]
compound = "CN(C)CCCN(CCCN(C)C)Cc1ccc(/C=c2\\[nH]c(=O)/c(=C/c3ccccc3)[nH]c2=O)cc1 [Compound 1981]"
tested_system = "PAI-1 (Homo sapiens)"
reported_value = "7%"

[[record]]
compound = "CN(C)CCOc1ccc(/C=c2\\[nH]c(=O)/c(=C/c3ccccc3)[nH]c2=O)cc1OCCN(C)C [Compound 1978]"
tested_system = "PAI-1 (Homo sapiens)"
reported_value = "0%"

[[record]]
compound = "CN(C)CCOc1ccc(/C=c2\\[nH]c(=O)/c(=C/c3c(Cl)cccc3Cl)[nH]c2=O)cc1 [Compound 1952]"
tested_system = "PAI-1 (Homo sapiens)"
reported_value = "1%"

